Recorded values, source patent US8759318B2.

In this section we review reported CC50 at 72 h values for a set of compounds.
Assay: Cytotoxicity assay (CellTiter-Glo)
Details: human, Huh7 HCV replicon cells (genotype 1b)

Compound	CC50 at 72 h
COc1nc(N)nc2c1ncn2C1O[C@H](CO)C[C@@]1(C)O (stereo partly drawn) [Example 94]	> 100 µM
CCOc1nc(N)nc2c1ncn2C1O[C@H](CO)[C@@H](O)[C@@]1(C)O (stereo partly drawn) [Example 72]	> 100 µM
CNc1nc(N)nc2c1ncn2C1O[C@H](CO)[C@@H](O)[C@@]1(C)O (stereo partly drawn) [Example 80]	> 100 µM
COc1nc(NCc2ccc(F)cc2)nc2c1ncn2[C@@H]1O[C@H](CO)[C@@H](O)[C@@]1(C)O [Example 92]	> 100 µM
C[C@@]1(O)[C@H](O)[C@@H](CO)O[C@H]1n1cnc2c(NCc3ccccc3)nc(N)nc21 [Example 84]	> 100 µM
CSc1nc(N)nc2c1ncn2[C@@H]1O[C@H](CO)[C@@H](O)[C@@]1(C)O [Example 88]	150 µM
